Reported pIC50 by item:
- Target System: human Nav1.7 (Homo sapiens (Human), UniProt Q15858)
- Sequence (Q15858 whole entry): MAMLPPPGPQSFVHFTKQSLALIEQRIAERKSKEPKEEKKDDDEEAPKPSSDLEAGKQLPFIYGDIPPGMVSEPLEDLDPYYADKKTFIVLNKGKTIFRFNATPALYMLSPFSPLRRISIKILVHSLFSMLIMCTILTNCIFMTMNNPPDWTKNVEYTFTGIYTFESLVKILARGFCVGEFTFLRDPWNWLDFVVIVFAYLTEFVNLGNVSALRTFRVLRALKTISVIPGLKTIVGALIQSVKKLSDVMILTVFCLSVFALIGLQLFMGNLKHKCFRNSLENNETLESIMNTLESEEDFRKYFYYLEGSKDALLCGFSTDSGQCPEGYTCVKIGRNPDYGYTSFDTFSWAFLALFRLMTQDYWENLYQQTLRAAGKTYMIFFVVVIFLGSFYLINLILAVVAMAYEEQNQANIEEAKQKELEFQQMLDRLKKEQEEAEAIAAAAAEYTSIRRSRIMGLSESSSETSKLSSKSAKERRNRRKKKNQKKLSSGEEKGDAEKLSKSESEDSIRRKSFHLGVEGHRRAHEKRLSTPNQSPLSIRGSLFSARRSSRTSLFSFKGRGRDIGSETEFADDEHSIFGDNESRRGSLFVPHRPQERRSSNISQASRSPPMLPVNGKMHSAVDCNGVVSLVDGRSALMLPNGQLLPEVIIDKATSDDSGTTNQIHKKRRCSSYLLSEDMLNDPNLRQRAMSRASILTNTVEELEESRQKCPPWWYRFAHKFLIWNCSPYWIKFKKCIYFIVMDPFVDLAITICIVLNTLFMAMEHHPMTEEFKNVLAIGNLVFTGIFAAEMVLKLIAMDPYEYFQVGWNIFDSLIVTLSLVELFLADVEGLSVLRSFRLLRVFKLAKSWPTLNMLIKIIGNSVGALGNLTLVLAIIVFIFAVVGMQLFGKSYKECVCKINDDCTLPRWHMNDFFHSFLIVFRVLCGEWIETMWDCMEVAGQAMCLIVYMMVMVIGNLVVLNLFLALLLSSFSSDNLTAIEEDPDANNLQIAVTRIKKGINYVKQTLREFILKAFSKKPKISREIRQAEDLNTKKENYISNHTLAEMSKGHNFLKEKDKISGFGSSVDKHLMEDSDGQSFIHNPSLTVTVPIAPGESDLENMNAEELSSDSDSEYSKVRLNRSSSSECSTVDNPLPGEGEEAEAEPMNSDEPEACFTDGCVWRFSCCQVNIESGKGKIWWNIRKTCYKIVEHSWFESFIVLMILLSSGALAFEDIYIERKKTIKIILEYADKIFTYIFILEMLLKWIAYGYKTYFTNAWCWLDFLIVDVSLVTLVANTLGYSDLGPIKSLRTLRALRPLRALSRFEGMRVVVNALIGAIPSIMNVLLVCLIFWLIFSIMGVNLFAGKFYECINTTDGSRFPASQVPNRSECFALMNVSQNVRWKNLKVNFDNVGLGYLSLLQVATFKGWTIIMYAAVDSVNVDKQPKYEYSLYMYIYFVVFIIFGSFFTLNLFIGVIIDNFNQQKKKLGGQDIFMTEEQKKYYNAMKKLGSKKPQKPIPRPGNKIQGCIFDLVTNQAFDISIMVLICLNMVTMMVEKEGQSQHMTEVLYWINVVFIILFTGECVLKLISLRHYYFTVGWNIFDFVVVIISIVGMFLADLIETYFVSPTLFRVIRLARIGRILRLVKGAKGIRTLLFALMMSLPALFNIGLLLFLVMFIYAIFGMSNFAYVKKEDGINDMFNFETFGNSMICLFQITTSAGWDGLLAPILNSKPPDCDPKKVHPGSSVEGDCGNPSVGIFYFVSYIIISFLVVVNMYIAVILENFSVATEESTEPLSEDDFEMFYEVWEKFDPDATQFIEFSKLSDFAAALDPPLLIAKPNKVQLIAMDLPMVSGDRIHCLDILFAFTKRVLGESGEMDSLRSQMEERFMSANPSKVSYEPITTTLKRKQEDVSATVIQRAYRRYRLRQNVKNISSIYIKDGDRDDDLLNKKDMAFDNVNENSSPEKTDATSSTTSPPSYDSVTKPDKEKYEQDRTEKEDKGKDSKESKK
- Sequence (Q07699 19-218 partner): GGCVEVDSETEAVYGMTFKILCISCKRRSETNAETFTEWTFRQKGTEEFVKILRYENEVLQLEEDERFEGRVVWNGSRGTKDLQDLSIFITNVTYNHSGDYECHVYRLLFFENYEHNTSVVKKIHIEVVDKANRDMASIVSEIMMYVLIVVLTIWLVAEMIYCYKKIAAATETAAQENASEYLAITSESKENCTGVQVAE
- Assay Method Text: Human Nav1.7 inhibitory activity evaluation (automated patch clamp QPatch16X, HEK293A cells stably expressing human Nav1.7 and human Navβ1)
- Format: cell-based
- Test Parameters: human Nav1.7, automated patch clamp
pIC50: −log10 of the molar value.
Measurement Type: pIC50

[[record]]
compound = "O=C(N[C@H]1COc2ccc(CCOCC(F)(F)F)cc2C1)c1cc2n(n1)CCC(C(F)(F)F)O2 (stereo partly drawn) [Example 397]"
observed = "> 6.00"

[[record]]
compound = "O=C(N[C@H]1COc2ccc(CCOC(F)(F)F)cc2C1)c1cc2n(n1)CC(C(F)(F)F)O2 (stereo partly drawn) [Example 447]"
observed = "> 6.00"

[[record]]
compound = "O=C(N[C@H]1COc2ccc(CC(F)F)cc2C1)c1cc2n(n1)CCC(CCOC(F)F)O2 (single isomer, unassigned) [148 (isomer A)]"
observed = "> 6.00"

[[record]]
compound = "CN1Cc2nc(C(=O)NC3COc4cccc(C(F)(F)F)c4C3)cn2CC1c1ccccc1 (stereo not drawn) [Example 334]"
observed = "> 5.00"

[[record]]
compound = "O=C(N[C@H]1COc2ccc(Br)cc2C1)c1cc2n(n1)CCC(C(F)F)O2 (stereo partly drawn) [Example 159]"
observed = "> 6.00"

[[record]]
compound = "O=C(N[C@H]1COc2ccc(C(F)(F)F)cc2C1O)c1cc2n(n1)CC(CCCOCC(F)(F)F)O2 (stereo partly drawn) [Example 591]"
observed = "> 6.00"

[[record]]
compound = "CN1Cc2nc(C(=O)NCCc3c[nH]c4ccccc34)cn2CC1c1ccccc1 (stereo not drawn) [Example 323]"
observed = "> 5.00"

[[record]]
compound = "O=C(c1cn2c(n1)CCC(c1cccc(OC3COC3)n1)C2)N1CCC(c2ccccc2)C1 (stereo not drawn) [Example 313]"
observed = "> 5.00"

[[record]]
compound = "O=C(N[C@H]1COc2ccc(CCOC(F)(F)F)cc2C1)c1cc2n(n1)CC(CCN1CC(F)(F)C1)O2 (single isomer, unassigned) [240 (isomer A)]"
observed = "> 5.00"

[[record]]
compound = "O=C(N[C@H]1COc2ccc(CC(F)(F)F)cc2C1)c1nc2n(c1-c1ccccn1)CCOC2 [Example 343]"
observed = "> 6.00"

[[record]]
compound = "Cn1ccc(-c2ccc3c(c2)C[C@@H](NC(=O)c2cc4n(n2)CCC(COCC2CC2)O4)CO3)n1 (stereo partly drawn) [Example 426]"
observed = "> 5.00"

[[record]]
compound = "COCc1ccc2c(c1)C[C@@H](NC(=O)c1cc3n(n1)CCC(c1ccccc1F)O3)CO2 (stereo partly drawn) [Example 361]"
observed = "> 6.00"

[[record]]
compound = "C=Cc1c(C(=O)N[C@H]2COc3ccccc3C2)nc2n1CC(C(F)(F)F)CC2 (stereo partly drawn) [Example 302]"
observed = "> 5.00"

[[record]]
compound = "N#Cc1ccc2c(c1)C[C@@H](NC(=O)c1cc3n(n1)CCC(Cc1ccc(F)cc1)O3)CO2 (stereo partly drawn) [Example 384]"
observed = "> 6.00"

[[record]]
compound = "O=C(N[C@H]1COc2ccc(C(F)(F)F)cc2C1)c1cc2n(n1)CCC(C1COCCO1)O2 (stereo partly drawn) [Example 620]"
observed = "> 6.00"

[[record]]
compound = "O=C(N[C@H]1COc2ccc(-c3cnc(N4CCC4)nc3)cc2C1)c1cc2n(n1)CCC(C(F)(F)F)O2 (stereo partly drawn) [Example 380]"
observed = "> 5.00"

[[record]]
compound = "O=C(N[C@H]1COc2ccccc2C1)c1nc2n(c1-c1ccccc1)CCN(C(=O)C(F)(F)F)C2 [Example 339]"
observed = "> 5.00"

[[record]]
compound = "O=C(N[C@H]1COc2ccccc2C1)c1nc2n(c1-c1ccccc1)CC(C(F)(F)F)CC2 (stereo partly drawn) [Example 299]"
observed = "> 6.00"

[[record]]
compound = "N#Cc1ccc2c(c1)C[C@@H](NC(=O)c1cc3n(n1)CCC(CC(F)(F)F)O3)CO2 (stereo partly drawn) [Example 562]"
observed = "> 5.00"

[[record]]
compound = "CN1Cc2nc(C(=O)N3CC(Oc4cccc(C(F)(F)F)n4)C3)cn2CC1c1ccccc1 (stereo not drawn) [Example 330]"
observed = "> 5.00"

[[record]]
compound = "N#Cc1ccc2c(c1)C[C@@H](NC(=O)c1cc3n(n1)CCC(C1CCOCC1)O3)CO2 (stereo partly drawn) [Example 585]"
observed = "> 5.00"

[[record]]
compound = "O=C(N[C@H]1COc2ccc(COC3CCC3)cc2C1)c1cc2n(n1)CCC(C(F)(F)F)O2 (stereo partly drawn) [Example 399]"
observed = "> 6.00"

[[record]]
compound = "O=C(N[C@H]1COc2ccc(CCOC(F)F)cc2C1)c1cc2n(n1)CC(CCOC(F)F)O2 (stereo partly drawn) [Example 216]"
observed = "> 6.00"

[[record]]
compound = "O=C(N[C@H]1COc2ccc(COCC(F)(F)F)cc2C1)c1cc2n(n1)CC(CC1CCOCC1)O2 (single isomer, unassigned) [622 (isomer A)]"
observed = "> 6.00"

[[record]]
compound = "O=C(N[C@H]1COc2ccc(-c3cccnc3)cc2C1)c1cc2n(n1)CCC(C(F)(F)F)O2 (stereo partly drawn) [Example 375]"
observed = "> 6.00"

[[record]]
compound = "N#Cc1ccc2c(c1)C[C@@H](NC(=O)c1cc3n(n1)CC(CCOC(F)(F)F)O3)CO2 (stereo partly drawn) [Example 208]"
observed = "> 6.00"

[[record]]
compound = "O=C(N[C@H]1COc2ccc(C(F)(F)F)cc2C1O)c1cc2n(n1)CC(CCCOCC(F)(F)F)O2 (single isomer, unassigned) [616 (isomer A)]"
observed = "> 6.00"

[[record]]
compound = "O=C(N[C@H]1COc2ccc(COCC(F)(F)F)cc2C1)c1cc2n(n1)CCC(C1COCCO1)O2 (stereo partly drawn) [Example 631]"
observed = "> 6.00"

[[record]]
compound = "N#Cc1ccc2c(c1)C[C@@H](NC(=O)c1cc3n(n1)CCC(CCOC(F)F)O3)CO2 (stereo partly drawn) [Example 145]"
observed = "> 6.00"

[[record]]
compound = "O=C(N[C@H]1COc2ccc(COCC(F)(F)F)cc2C1)c1cc2n(n1)CCC(C(F)F)O2 (single isomer, unassigned) [163 (isomer B)]"
observed = "> 5.00"

